Quick reference for ELISA fold over background among some binders
target-or-system: S1-Fc (SARS-CoV-2, UniProt P0DTC2 16-685)
assay-method-text: phage ELISA
The reply should be a number in fold over background, with the unit left off.

Ask | Reported ELISA fold over background, binder 1-5 (antibody, V domains shown, also called variant 1-5) VH: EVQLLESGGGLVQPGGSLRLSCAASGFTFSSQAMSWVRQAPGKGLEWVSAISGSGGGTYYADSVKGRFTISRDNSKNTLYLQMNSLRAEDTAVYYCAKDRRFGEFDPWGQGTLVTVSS VL: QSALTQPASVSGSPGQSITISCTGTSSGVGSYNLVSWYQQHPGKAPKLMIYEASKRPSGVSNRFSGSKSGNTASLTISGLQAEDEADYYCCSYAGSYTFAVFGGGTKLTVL : ____
Reply | 1.2

Ask | Also, 1-10 (antibody, V domains shown, also called variant 1-10) VH: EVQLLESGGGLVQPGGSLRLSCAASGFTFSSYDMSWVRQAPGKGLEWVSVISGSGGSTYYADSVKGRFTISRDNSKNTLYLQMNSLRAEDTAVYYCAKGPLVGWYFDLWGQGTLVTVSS VL: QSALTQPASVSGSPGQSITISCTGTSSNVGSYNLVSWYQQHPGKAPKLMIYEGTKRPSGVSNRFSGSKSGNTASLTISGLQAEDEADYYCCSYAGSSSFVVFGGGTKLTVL please.
Reply | 1.3

Could you now consider this next binder?
Ask | Which ELISA fold over background value is on record for 1-3 (antibody, V domains shown, also called variant 1-3) VH: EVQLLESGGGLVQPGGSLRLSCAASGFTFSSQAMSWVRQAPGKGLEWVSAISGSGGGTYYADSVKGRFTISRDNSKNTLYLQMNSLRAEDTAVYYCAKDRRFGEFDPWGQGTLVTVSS VL: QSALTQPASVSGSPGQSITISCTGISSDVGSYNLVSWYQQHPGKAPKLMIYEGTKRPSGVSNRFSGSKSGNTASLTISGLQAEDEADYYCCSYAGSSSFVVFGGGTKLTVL ?
Reply | 1.5
